The origin of these recorded values is paper PMC7138392.

Test: Cytotoxicity in MDCK cells
Assay type: cell-based, Canine
Settings: dog

compound | CC50 at 72 h
CCC(CC)O[C@@H]1C=C(C(=O)O)C[C@H](N)[C@H]1NC(C)=O [OC, Oseltamivir carboxylate] | > 100 µM
